targetOrSystem: Anti-CD28 Fab (SEQ ID NOs: 696, 697)
Sequence (VH, as listed by the source, chain 1 of 2): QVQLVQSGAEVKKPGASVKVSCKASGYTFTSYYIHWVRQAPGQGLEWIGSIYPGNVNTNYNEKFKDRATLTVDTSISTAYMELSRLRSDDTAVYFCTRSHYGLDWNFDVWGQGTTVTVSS
Sequence (VL, as listed by the source, chain 2 of 2): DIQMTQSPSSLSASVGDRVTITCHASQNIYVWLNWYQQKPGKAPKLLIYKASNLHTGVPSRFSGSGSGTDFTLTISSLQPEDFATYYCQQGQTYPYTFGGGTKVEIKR
assayName: phage binding ELISA; biotinylated Fab on neutravidin plate, anti-M13 HRP detection
Assignment: determine reported Anti-CD28 Fab (SEQ ID NOs: 696, 697) signal for the given binders.
Output: the number by itself.

INPUT: Field request: Anti-CD28 Fab (SEQ ID NOs: 696, 697) signal | item: YCDGHLPEYITKCL [Phage-1023]
OUTPUT: 1.49

INPUT: Now the same for YCDGHSLEYMVKCL [Phage-1033]
OUTPUT: 1.46

INPUT: // next record YCEGHVLEYRGKCD [Phage-1026]
OUTPUT: 1.48

INPUT: Can you check YCDGHLAIYIGKCL [Phage-1030] next?
OUTPUT: 1.47

INPUT: Continue with YCDGHLEIYMSKCL [Phage-1031]
OUTPUT: 1.46

INPUT: And for YCDGHVAEYRHKCL [Phage-1027] ?
OUTPUT: 1.47

INPUT: Would you kindly repeat that for YCEGHRPEYMQKCV [Phage-1024] ?
OUTPUT: 1.48

INPUT: What about this binder? YCDGHLLEYMSKCL [Phage-1032]
OUTPUT: 1.46

INPUT: Next binder: YCEGHSLEHIAKCL [Phage-1034]
OUTPUT: 1.46

INPUT: Try YCEGHLDQYMTKCL [Phage-1028] next.
OUTPUT: 1.47

INPUT: Next up: YCAGHTVENMAKCL [Phage-1025]
OUTPUT: 1.48

INPUT: Could you do the same for YCAGHTQEYIEKCL [Phage-1029] , please?
OUTPUT: 1.47

INPUT: Do the same for YCEGHTPVYMPKCL [Phage-1035] please
OUTPUT: 1.46
